- Test system: RPMI-LR5
- Experiment Description: MTT viability assay, MM cell line panel
- Format: cell-based
- Condition Description: RPMI-LR5 (melphalan resistant), 48 hours
Measured Endpoint: IC50

Input: Report measured IC50; entry is "COc1c(C)cc2c(c1O)[C@@H]1[C@@H]3Cc4c(OC(C)=O)c(C)c5c(c4[C@H](CNC(=O)/C=C/c4cccc(C(F)(F)F)c4)N3[C@@H](O)[C@H](C2)N1C)OCO5"
Output: 1 to 2 nM
